// data source = ChEMBL document CHEMBL6071156

Biological target: A-type voltage-gated potassium channel KCND3 (Homo sapiens, UniProt Q9UK17)
Sequence (Q9UK17 whole entry): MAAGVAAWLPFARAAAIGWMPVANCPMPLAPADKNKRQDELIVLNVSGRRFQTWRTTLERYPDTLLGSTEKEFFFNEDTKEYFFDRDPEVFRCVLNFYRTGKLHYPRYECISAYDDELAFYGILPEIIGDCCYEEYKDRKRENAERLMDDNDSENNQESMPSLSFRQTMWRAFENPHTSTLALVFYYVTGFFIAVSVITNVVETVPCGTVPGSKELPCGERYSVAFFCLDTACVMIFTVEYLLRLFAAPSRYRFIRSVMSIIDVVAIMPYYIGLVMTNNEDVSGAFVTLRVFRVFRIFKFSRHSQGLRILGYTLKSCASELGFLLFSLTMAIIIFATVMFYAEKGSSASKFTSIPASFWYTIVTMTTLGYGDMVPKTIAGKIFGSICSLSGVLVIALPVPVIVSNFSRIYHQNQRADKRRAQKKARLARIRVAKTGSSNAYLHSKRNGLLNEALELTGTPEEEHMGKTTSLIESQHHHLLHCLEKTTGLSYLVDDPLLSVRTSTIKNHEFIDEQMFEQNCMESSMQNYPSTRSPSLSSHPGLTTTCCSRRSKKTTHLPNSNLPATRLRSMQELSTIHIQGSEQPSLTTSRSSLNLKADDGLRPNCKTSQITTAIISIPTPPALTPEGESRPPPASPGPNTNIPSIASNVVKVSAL
Assay: Antagonist activity at potassium channels hKv4.3/hKChiP2 expressed in HEK293 cells by Electrophysiology
pIC50: −log10 of the molar value.

{"compound": "CC1CCNc2c(C(=O)NC/C=C/S(C)(=O)=O)cccc21 (stereo unspecified)", "pIC50": "< 4.00"}

---

target: Cytochrome P450 2D6 (Homo sapiens)
Sequence (P10635 whole entry): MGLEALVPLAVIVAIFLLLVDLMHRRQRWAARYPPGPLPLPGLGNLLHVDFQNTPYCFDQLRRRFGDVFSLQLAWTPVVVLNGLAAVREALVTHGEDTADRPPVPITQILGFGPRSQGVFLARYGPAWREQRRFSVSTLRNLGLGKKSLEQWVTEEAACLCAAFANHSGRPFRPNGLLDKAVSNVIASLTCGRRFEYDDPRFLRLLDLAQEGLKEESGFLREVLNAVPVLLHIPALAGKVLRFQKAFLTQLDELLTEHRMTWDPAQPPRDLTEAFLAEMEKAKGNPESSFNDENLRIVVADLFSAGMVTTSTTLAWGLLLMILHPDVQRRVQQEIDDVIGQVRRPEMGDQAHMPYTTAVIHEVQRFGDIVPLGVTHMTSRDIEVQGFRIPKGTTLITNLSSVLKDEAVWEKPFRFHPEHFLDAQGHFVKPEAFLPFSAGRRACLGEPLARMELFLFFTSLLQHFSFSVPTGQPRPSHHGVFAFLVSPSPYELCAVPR

{"molecule": "CC1CCNc2c(C(=O)NC/C=C/S(C)(=O)=O)cccc21 (stereo unspecified)", "target entity": "Cytochrome P450 2D6 (Homo sapiens)", "IC50": "> 100 µM"}

---

assay: Cytotoxicity against green monkey Vero 76 cells assessed as reduction in cell viability; format: toxicity, cell-based; settings: chlorocebus sabaeus

{"compound": "COC(=O)/C=C/CNC(=O)c1cc(C)cc2c1NC(C)(C)C=C2C", "CC50": "> 43 µM"}
{"compound": "COC(=O)/C=C/CNC(=O)c1cccc2c1NC(C)(C)C=C2C", "CC50": "> 22 µM"}
{"compound": "CC1CCNc2c(C(=O)NC/C=C/S(C)(=O)=O)cccc21 (stereo not drawn)", "CC50": "> 50 µM"}

---

Recorded selectivity ratio by entry
experiment: Selective index, ratio of ratio of CC50 for cytotoxicity against green monkey Vero 76 cells to EC50 for antiviral activity against CHIKV S27 in green monkey Vero 76 cells assessed as reduction; type: toxicity, cell-based; settings: read-out: Selectivity Index
endpoint name: selectivity ratio

{"compound": "CC1CCc2cccc(C(=O)NC/C=C/S(C)(=O)=O)c2N1 (stereo not drawn)", "test result": "> 220"}
{"compound": "CC1=CC(C)(C)Nc2c(C(=O)N[C@@H](C)/C=C/S(C)(=O)=O)cccc21", "test result": "> 11"}
{"compound": "CC1CC(C)(C)Nc2c(C(=O)NC/C=C/S(C)(=O)=O)cccc21 (stereo not drawn)", "test result": "> 2"}

---

test system: Kir2.1; assay: Antagonist activity at hKir2.1 expressed in HEK293 cells by Electrophysiology; format: toxicity, cell-based; details: human, HEK293 cells expressing hKir2.1
pIC50: −log10 of the molar value.

{"compound": "CC1CCNc2c(C(=O)NC/C=C/S(C)(=O)=O)cccc21 (stereo unspecified)", "pIC50": "< 4.00"}

---

system: Cav1.2; assay: Antagonist activity at hCav1.2 expressed in HEK293 cells by Electrophysiology; format: toxicity, cell-based; conditions: human, HEK293 cells expressing hCav1.2
endpoint name: IC50

{"compound": "CC1CCNc2c(C(=O)NC/C=C/S(C)(=O)=O)cccc21 (stereo unspecified)", "test result": "> 100 µM"}

---

Target: Cytochrome P450 2B6 (Homo sapiens, UniProt P20813)
Sequence (P20813 whole entry): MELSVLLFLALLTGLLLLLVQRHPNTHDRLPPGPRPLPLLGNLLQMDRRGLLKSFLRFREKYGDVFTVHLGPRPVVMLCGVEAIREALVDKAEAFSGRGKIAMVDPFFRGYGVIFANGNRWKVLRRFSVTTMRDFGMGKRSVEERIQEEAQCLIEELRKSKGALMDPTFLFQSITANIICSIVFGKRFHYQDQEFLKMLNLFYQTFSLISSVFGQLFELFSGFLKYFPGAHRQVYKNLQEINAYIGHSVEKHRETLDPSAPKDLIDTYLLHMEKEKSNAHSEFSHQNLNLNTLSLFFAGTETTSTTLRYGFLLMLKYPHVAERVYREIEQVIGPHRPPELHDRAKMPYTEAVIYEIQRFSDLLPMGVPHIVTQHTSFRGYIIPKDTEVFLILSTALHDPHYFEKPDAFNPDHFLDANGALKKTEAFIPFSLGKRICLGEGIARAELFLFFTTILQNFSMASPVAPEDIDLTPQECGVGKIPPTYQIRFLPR
endpoint name: IC50

{"compound": "CC1CCNc2c(C(=O)NC/C=C/S(C)(=O)=O)cccc21 (stereo unspecified)", "endpoint name": "IC50", "test result": "> 100 µM"}

---

target: Cytochrome P450 3A4 (Homo sapiens, UniProt P08684)
Sequence (P08684 whole entry): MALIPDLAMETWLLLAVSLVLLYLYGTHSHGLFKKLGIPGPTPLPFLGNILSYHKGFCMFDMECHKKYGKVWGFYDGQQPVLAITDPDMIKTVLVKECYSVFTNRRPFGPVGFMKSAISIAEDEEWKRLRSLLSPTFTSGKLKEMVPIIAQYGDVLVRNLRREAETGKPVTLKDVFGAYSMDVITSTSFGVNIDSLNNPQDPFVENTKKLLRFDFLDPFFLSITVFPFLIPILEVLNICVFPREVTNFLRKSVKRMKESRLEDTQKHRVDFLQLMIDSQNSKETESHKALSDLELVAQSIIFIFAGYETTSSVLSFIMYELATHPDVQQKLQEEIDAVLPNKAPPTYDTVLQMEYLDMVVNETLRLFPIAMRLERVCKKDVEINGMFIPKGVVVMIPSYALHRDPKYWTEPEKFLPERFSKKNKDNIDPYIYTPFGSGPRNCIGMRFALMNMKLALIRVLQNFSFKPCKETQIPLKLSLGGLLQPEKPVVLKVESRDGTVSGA
endpoint name: IC50

{"compound": "CC1CCNc2c(C(=O)NC/C=C/S(C)(=O)=O)cccc21 (stereo unspecified)", "endpoint name": "IC50", "test result": "> 100 µM"}

---

test system: Chikungunya virus; test: Antiviral activity against CHIKV S27 in green monkey Vero 76 cells assessed as reduction in virus-induced cytopathic effect; format: functional, organism-based; details: S27, Vero 76
// reported EC50 for each item listed
endpoint name: EC50

{"compound": "CC1CC(C)(C)Nc2c(C(=O)NC/C=C/S(C)(=O)=O)cccc21 (centres undefined)", "test result": "25 µM"}
{"compound": "CC1=CC(C)(C)Nc2c(C(=O)N[C@@H](C)/C=C/S(C)(=O)=O)cccc21", "test result": "4.4 µM"}
{"compound": "COC(=O)/C=C/CNC(=O)c1cccc2c1NCCC2", "test result": "> 50 µM"}
{"compound": "COC(=O)/C=C/CNC(=O)c1cccc2c1NC(C)(C)C=C2C", "test result": "> 22 µM"}
{"compound": "COC(=O)/C=C/CNC(=O)c1c[nH]c2ccc(Br)cc12", "test result": "3.1 µM"}
{"compound": "CC1=CC(C)(C)Nc2c(C(=O)NC/C=C/S(C)(=O)=O)cccc21", "test result": "23 µM"}
{"compound": "CS(=O)(=O)/C=C/[C@H](Cc1ccccc1)NC(=O)c1cccc2cccnc12", "test result": "> 50 µM"}
{"compound": "COC(=O)/C=C/CNC(=O)c1cc(C)cc2c1NC(C)(C)C=C2C", "test result": "> 43 µM"}
{"compound": "CC1CCNc2c(C(=O)NC/C=C/S(C)(=O)=O)cccc21 (centres undefined)", "test result": "0.39 µM"}
{"compound": "COC(=O)/C=C/CNC(=O)c1cccc2ccc(C)nc12", "test result": "> 34 µM"}
{"compound": "COC(=O)/C=C/CNC(=O)c1cccc2cccnc12", "test result": "> 50 µM"}
{"compound": "COC(=O)CCCNC(=O)c1cccc2c1NC(C)(C)CC2C (centres undefined)", "test result": "> 50 µM"}
{"compound": "COC(=O)/C=C/CNC(=O)c1ccccc1Nc1ccccc1", "test result": "> 38 µM"}
{"compound": "CC1CCc2cccc(C(=O)NC/C=C/S(C)(=O)=O)c2N1 (centres undefined)", "test result": "0.23 µM"}

---

The entries below are paired with their reported CC50.
assay: Cytotoxicity against green monkey Vero 76 cells assessed as reduction in cell viability; assay type: toxicity, cell-based; conditions: chlorocebus sabaeus

{"compound": "CC1=CC(C)(C)Nc2c(C(=O)NC/C=C/S(C)(=O)=O)cccc21", "CC50": "39 µM"}
{"compound": "CS(=O)(=O)/C=C/[C@H](Cc1ccccc1)NC(=O)c1cccc2cccnc12", "CC50": "> 50 µM"}
{"compound": "COC(=O)/C=C/CNC(=O)c1c[nH]c2ccc(Br)cc12", "CC50": "16 µM"}
{"compound": "CC1CCc2cccc(C(=O)NC/C=C/S(C)(=O)=O)c2N1 (stereo unspecified)", "CC50": "> 50 µM"}
{"compound": "COC(=O)/C=C/CNC(=O)c1cccc2c1NCCC2", "CC50": "> 50 µM"}
{"compound": "CC1=CC(C)(C)Nc2c(C(=O)N[C@@H](C)/C=C/S(C)(=O)=O)cccc21", "CC50": "> 50 µM"}
{"compound": "COC(=O)/C=C/CNC(=O)c1ccccc1Nc1ccccc1", "CC50": "38 µM"}
{"compound": "COC(=O)/C=C/CNC(=O)c1cccc2cccnc12", "CC50": "> 50 µM"}
{"compound": "CC1CC(C)(C)Nc2c(C(=O)NC/C=C/S(C)(=O)=O)cccc21 (stereo unspecified)", "CC50": "> 50 µM"}
{"compound": "COC(=O)/C=C/CNC(=O)c1cccc2ccc(C)nc12", "CC50": "34 µM"}
{"compound": "COC(=O)CCCNC(=O)c1cccc2c1NC(C)(C)CC2C (stereo unspecified)", "CC50": "> 50 µM"}
